Consider the following sequences; for each one, report its binding signal.
- TESTED TARGET: POU1 (OCT1 POU domain);BOB1 (OBF1, OCA-B) (human;human, UniProt P14859;Q16633 260-458;1-256, |)
- Sequence (P14859 260-458, chain 1 of 2): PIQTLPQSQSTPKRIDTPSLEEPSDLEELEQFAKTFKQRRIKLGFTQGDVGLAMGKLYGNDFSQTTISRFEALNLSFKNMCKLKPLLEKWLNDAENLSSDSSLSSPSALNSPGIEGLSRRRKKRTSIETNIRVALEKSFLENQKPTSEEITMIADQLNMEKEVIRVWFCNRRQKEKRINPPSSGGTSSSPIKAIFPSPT
- Sequence (Q16633 whole entry, chain 2 of 2, the tested form may be a part): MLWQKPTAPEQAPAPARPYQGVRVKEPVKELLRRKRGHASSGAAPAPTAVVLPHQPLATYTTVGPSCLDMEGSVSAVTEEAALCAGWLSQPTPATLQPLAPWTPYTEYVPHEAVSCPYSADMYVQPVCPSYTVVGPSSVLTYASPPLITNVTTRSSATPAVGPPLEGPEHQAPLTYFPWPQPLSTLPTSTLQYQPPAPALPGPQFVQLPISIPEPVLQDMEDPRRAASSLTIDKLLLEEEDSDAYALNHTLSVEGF
- PROTOCOL TEXT: EMSA-SELEX-seq; with BOB1 (ternary complex band); 20 mM Tris-HCl pH 7.6, 140 mM NaCl, 10% glycerol, 0.5 mM EDTA, 0.05% Triton X-100, 0.1 mg/mL BSA, 0.1 mg/mL poly(dI-dC), 5 mM DTT, room temperature, 20 min; high values mean tight binding
- CONDITION SUMMARY: protein: recombinant;recombinant; copies: 1;1; dsDNA, one strand shown

Answered examples (5):
entry_sequence=AGGCAAAC result_value="0.157 % of ANNNNAAN 8-mers"
entry_sequence=ACTGCAAC result_value="0.0199 % of ANNNNAAN 8-mers"
entry_sequence=AAGGGAAC result_value="0.0363 % of ANNNNAAN 8-mers"
entry_sequence=ATCTTAAC result_value="0.0402 % of ANNNNAAN 8-mers"
entry_sequence=ACCATAAA result_value="0.0304 % of ANNNNAAN 8-mers"

For each listed entry, give its binding signal.
1. ACGTCAAA
2. ACTGGAAC
3. AAATTAAG
4. AGGATAAG
5. ACTTGAAG
6. ACATAAAA
7. AGACGAAC
8. ACCGAAAT

["0.0371 % of ANNNNAAN 8-mers", "0.0183 % of ANNNNAAN 8-mers", "0.238 % of ANNNNAAN 8-mers", "0.0523 % of ANNNNAAN 8-mers", "0.0273 % of ANNNNAAN 8-mers", "0.073 % of ANNNNAAN 8-mers", "0.0137 % of ANNNNAAN 8-mers", "0.0437 % of ANNNNAAN 8-mers"]

For each listed entry, give its binding signal.
1. AGTTTAAG
2. ACGTTAAC
3. AGATGAAA
4. AGCATAAC
5. ATATCAAC
6. ATTTGAAA
7. AGTAGAAA
8. ATTCTAAC

0.0519 % of ANNNNAAN 8-mers
0.0234 % of ANNNNAAN 8-mers
0.0718 % of ANNNNAAN 8-mers
0.0207 % of ANNNNAAN 8-mers
0.0367 % of ANNNNAAN 8-mers
0.178 % of ANNNNAAN 8-mers
0.0464 % of ANNNNAAN 8-mers
0.0328 % of ANNNNAAN 8-mers

Read off the recorded binding signal for "AGTCAAAT"
1.18 % of ANNNNAAN 8-mers
